- Test system: 855422-203-R-J1-PDC complex spheroids, viability;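 further: spheroids exposed to drugs for seven days before readout; 100% = DMSO vehicle control wells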
- assay: Anticancer human tumor 855422-203-R-J1-PDC patient-derived bladder carcinoma cell line growth inhibition [CLK]
- condition: second compound 0.0316 µM; first compound 3.16 µM; stronger effect = lower value
For each entry below, report its viability, T/C value.
One number for each entry, in %.

INSERT INTO measurements (molecule, readout_kind, readout_unit, reported_measurement) VALUES
  ('Nc1ccccc1NC(=O)c1ccc(CNC(=O)OCc2cccnc2)cc1 + CN1CCN(c2cc(C(=O)Nc3cc4cc(-c5cnn(C)c5)ccc4cn3)ccn2)CC1', 'viability, T/C', '%', 19.2);

Hi team, please reply with viability, T/C for each item in this list.
1. COc1ccc([C@@H](O)c2cc(-c3ncnc4cc(N5CCOCC5)ccc34)c(F)cc2Cl)nn1 + CN1CCN(c2cc(C(=O)Nc3cc4cc(-c5cnn(C)c5)ccc4cn3)ccn2)CC1
2. CC(CO)NC(=O)c1cc(-c2ccc(Cl)cc2)nn(-c2cnn(C)c2)c1=O (stereo not drawn) + CNC(=O)c1ccc(Nc2nc(OC3CCCC3)c3c(-c4ccc5nc(C)oc5c4)c[nH]c3n2)c(OC)c1

[66, 96]
